Just for reference, patent US8175815B2 is where these values come from.

procedure-summary: equilibrium solubility-pH, direct-UV microtitre plate (μSOL Evolution) with and without excipients
condition: aqueous universal buffer (pION), saturated drug suspension, pKa^APP ± SD, apparent ionization constant; excipient 3 mM NaTC
property-measured: pKa at 18 h

OCCN(CCO)c1nc(N2CCCCC2)c2nc(N(CCO)CCO)nc(N3CCCCC3)c2n1 [dipyridamole] ... 5.6

(P) CCCCN(CCCC)CCCOC(=O)c1ccc(N)cc1 [butacaine]
(Q) Cc1cccc(Nc2ccccc2C(=O)O)c1C [mefenamic acid]
Query: I'd appreciate it if you could identify which of P and Q has the greater pKa at 18 h. Could you answer with the label of the item you picked?
Response: P

====

procedure-summary: equilibrium solubility-pH, direct-UV microtitre plate (μSOL Evolution) with and without excipients
condition: aqueous universal buffer (pION), saturated drug suspension, pKa^APP ± SD, apparent ionization constant; excipient 5% PG
property-measured: pKa at 18 h

Cc1cccc(Nc2ccccc2C(=O)O)c1C ... 4

(a) CCCCN(CCCC)CCCOC(=O)c1ccc(N)cc1
(b) OCCN(CCO)c1nc(N2CCCCC2)c2nc(N(CCO)CCO)nc(N3CCCCC3)c2n1
Query: Please choose the item with the lower pKa at 18 h value from this pair: a and b Could you answer with the label of the item you picked?
Response: b
(b: 5.8, a: 8.5)

====

procedure-summary: equilibrium solubility-pH, direct-UV microtitre plate (μSOL Evolution) with and without excipients
condition: aqueous universal buffer (pION), saturated drug suspension, pKa^APP ± SD, apparent ionization constant; excipient […] PG
property-measured: pKa at 18 h

OCCN(CCO)c1nc(N2CCCCC2)c2nc(N(CCO)CCO)nc(N3CCCCC3)c2n1 ... 5.8

(1) Cc1cccc(Nc2ccccc2C(=O)O)c1C
(2) CCCCN(CCCC)CCCOC(=O)c1ccc(N)cc1
Query: Please choose the item with the lower pKa at 18 h value from this pair: 1 and 2 Could you answer with the label of the item you picked?
Response: 1
(1: 4.1, 2: 8.8)

====

procedure-summary: equilibrium solubility-pH, direct-UV microtitre plate (μSOL Evolution) with and without excipients
condition: aqueous universal buffer (pION), saturated drug suspension, pKa^APP ± SD, apparent ionization constant; excipient 1% NMP
property-measured: pKa at 18 h

Cc1cccc(Nc2ccccc2C(=O)O)c1C ... 4.4

(a) OCCN(CCO)c1nc(N2CCCCC2)c2nc(N(CCO)CCO)nc(N3CCCCC3)c2n1
(b) CCCCN(CCCC)CCCOC(=O)c1ccc(N)cc1
Query: Please choose the item with the lower pKa at 18 h value from this pair: a and b Could you answer with the label of the item you picked?
Response: a
(a: 5.7, b: 8.5)

====

condition: PAMPA, 30 min, 50 μM
property-measured: PABL 3 mM NaTC

Previously resolved entries follow.
Clc1ccccc1C(c1ccccc1)(c1ccccc1)n1ccnc1 [clotrimazole] ... 604
Cc1cccc(Nc2ccccc2C(=O)O)c1C [mefenamic acid] ... 909
CCCCN(CCCC)CCCOC(=O)c1ccc(N)cc1 [butacaine] ... 954

(P) COc1ccc(CCN2CCC(Nc3nc4ccccc4n3Cc3ccc(F)cc3)CC2)cc1 [astemizole]
(Q) OCCN(CCO)c1nc(N2CCCCC2)c2nc(N(CCO)CCO)nc(N3CCCCC3)c2n1 [dipyridamole]
Query: I'd appreciate it if you could identify which of P and Q has the greater PABL 3 mM NaTC. Could you answer with the label of the item you picked?
Response: Q
(Q: 922, P: 561)
